The origin of these recorded values is the Immune Epitope Database (IEDB).

molecular target: HLA-B*39:01; experiment: IEDB peptide-MHC binding, purified MHC/competitive/fluorescence; filed as Kd, often an IC50 or EC50 that approximates it; bounds were set here for any values at or beyond the usual limits of such assays; settings: source organism: Zaire ebolavirus
assayEndpoint: Kd

For the sequence shown here, KLWTSISCA , give the reported Kd.
≥ 20 µM

---

molecular target: HLA-B*15:17; experiment: IEDB peptide-MHC binding, purified MHC/competitive/fluorescence; filed as Kd, often an IC50 or EC50 that approximates it; bounds were set here for any values at or beyond the usual limits of such assays; conditions: source organism: Choclo virus
pKd: −log10 of the molar value.
assayEndpoint: pKd

Identify the measured pKd of VMGVIGFGF for HLA-B*15:17.
≤ 4.70
